Cited source for all entries: patent US10604523B2

Measured PIC50 PDE10 by item
Target: Rat recombinant PDE10A (rPDE10A2) (Rattus norvegicus, UniProt Q9QYJ6)
Construct: made in house; host or cells: Sf9 insect cells (baculovirus)
Sequence (Q9QYJ6 whole entry): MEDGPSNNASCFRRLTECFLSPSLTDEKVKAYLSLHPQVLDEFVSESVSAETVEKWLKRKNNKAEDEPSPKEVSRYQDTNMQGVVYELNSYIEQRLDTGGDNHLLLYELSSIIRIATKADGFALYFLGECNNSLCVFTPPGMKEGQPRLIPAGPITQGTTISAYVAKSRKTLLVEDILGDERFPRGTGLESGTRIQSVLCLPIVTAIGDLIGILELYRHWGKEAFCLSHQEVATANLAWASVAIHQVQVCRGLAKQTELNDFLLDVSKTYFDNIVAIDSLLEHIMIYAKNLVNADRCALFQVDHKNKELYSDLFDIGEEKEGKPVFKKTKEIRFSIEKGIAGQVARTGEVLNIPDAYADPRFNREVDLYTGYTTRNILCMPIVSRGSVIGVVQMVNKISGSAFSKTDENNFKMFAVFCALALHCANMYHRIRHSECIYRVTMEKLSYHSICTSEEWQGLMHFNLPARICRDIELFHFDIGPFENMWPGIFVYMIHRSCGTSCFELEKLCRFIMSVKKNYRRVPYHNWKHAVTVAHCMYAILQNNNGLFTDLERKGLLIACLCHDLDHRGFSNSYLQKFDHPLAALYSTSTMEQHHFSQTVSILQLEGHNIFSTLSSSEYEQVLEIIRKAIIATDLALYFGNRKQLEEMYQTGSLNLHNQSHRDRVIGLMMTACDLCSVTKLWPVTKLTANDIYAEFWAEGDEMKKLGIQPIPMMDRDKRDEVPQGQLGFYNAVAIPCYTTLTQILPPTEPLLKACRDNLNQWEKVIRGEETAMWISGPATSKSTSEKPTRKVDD
Experiment: In vitro assay PDE10A (SPA, 3H-cAMP)
Type: biochemical
Conditions: -log IC50 expressed in mol/L; rPDE10A2, 60 nM cAMP

{"molecule": "Cc1nc2ccc(CNCc3ccccc3)cc2n2c(-c3ccccc3Cl)nnc12", "PIC50 PDE10": 7.3}
{"molecule": "CCCCOc1ccc(Cl)c(-c2nnc3c(C)nc4ccc(CNC(C)C)cc4n23)c1", "PIC50 PDE10": 5.38}
{"molecule": "CCCOc1cncc(-c2nnc3c(C)nc4ccc(CN5CCOCC5)cc4n23)c1", "PIC50 PDE10": 5.21}
{"molecule": "CCNCc1ccc2nc(C)c3nnc(-c4cc(OC(C)C)ccc4Cl)n3c2c1", "PIC50 PDE10": 5.07}
{"molecule": "COCCOc1cncc(-c2nnc3c(C)nc4ccc(CN5CCOCC5)cc4n23)c1", "PIC50 PDE10": 5.11}
{"molecule": "COC1CCN(Cc2ccc3nc(C)c4nnc(-c5ccccc5Cl)n4c3c2)CC1", "PIC50 PDE10": 7.41}
{"molecule": "CCOC(=O)c1ccc2c(c1)nc(C)c1nnc(-c3ccccc3)n12", "PIC50 PDE10": 5.57}
{"molecule": "CCCCOc1ccc(Cl)c(-c2nnc3c(C)nc4ccc(CNC)cc4n23)c1", "PIC50 PDE10": 5.04}
{"molecule": "CCCOc1ccc(Cl)c(-c2nnc3c(C)nc4ccc(CN5CCOCC5)cc4n23)c1", "PIC50 PDE10": 6.49}
{"molecule": "CCOc1ccc(Cl)c(-c2nnc3c(C)nc4ccc(CN5CCOCC5)cc4n23)c1", "PIC50 PDE10": 6.58}
{"molecule": "Cc1nc2ccc(CN(C)C)cc2n2c(-c3cc(OC(C)C)ccc3Cl)nnc12", "PIC50 PDE10": 5.8}
{"molecule": "Cc1nc2ccc(CN3CCOCC3)cc2n2c(-c3cc(OC(C)C)ccc3Cl)nnc12", "PIC50 PDE10": 5.73}
{"molecule": "COc1cncc(-c2nnc3c(C)nc4ccc(CN5CCOCC5)cc4n23)c1", "PIC50 PDE10": 6.57}
{"molecule": "Cc1nc2ccc(CN3CCOCC3)cc2n2c(-c3cncc(OCC4CC4)c3)nnc12", "PIC50 PDE10": 5.44}
{"molecule": "CCNCc1ccc2nc(C)c3nnc(-c4cc(OCC)ccc4Cl)n3c2c1 [Compound B-151a]", "PIC50 PDE10": 6.04}
{"molecule": "CCCCOc1cncc(-c2nnc3c(C)nc4ccc(CN(C)C)cc4n23)c1", "PIC50 PDE10": 5.03}

----------
Measured SC Max effect (cumulative agitation score over 60 min) by item
Test system: Apomorphine-induced agitation
Experiment: Reversal of Apomorphine-induced Agitation in Rats (APO)
Format: in vivo, rat
Details: subcutaneous route; apomorphine 1.0 mg/kg i.v.
observable: SC Max effect (cumulative agitation score over 60 min)

{"structure.string": "Cc1nc2ccc(CN3CCOCC3)cc2n2c(-c3ccc(F)cc3Cl)nnc12", "result": 9}
{"structure.string": "Cc1nc2ccc(C(=O)NCc3ccncc3)cc2n2c(-c3ccccc3)nnc12", "result": 29}
{"structure.string": "Cc1nc2ccc(OCCN3CCOCC3)cc2n2c(-c3ccccc3Cl)nnc12", "result": 8}
{"structure.string": "Cc1nc2ccc(NCCN3CCOCC3)cc2n2c(-c3ccccc3Cl)nnc12", "result": 15}
{"structure.string": "CCOc1ccc(Cl)c(-c2nnc3c(C)nc4ccc(CN5CCN(C)CC5)cc4n23)c1", "result": 22}
{"structure.string": "CCOc1ccc(Cl)c(-c2nnc3c(C)nc4ccc(CN5CCC(O)CC5)cc4n23)c1", "result": 21}
{"structure.string": "Cc1nc2ccc(CN(C)C)cc2n2c(-c3ccccc3Cl)nnc12", "result": 20.5}
{"structure.string": "CCNC(=O)c1ccc2nc(C)c3nnc(-c4cccnc4C)n3c2c1", "result": 22}

----------
Target: Rat recombinant PDE10A (rPDE10A2) (Rattus norvegicus, UniProt Q9QYJ6)
Construct: made in house; host or cells: Sf9 insect cells (baculovirus)
Assay: In vitro assay PDE10A (SPA, 3H-cAMP)
Format: biochemical
Details: read-out: PIC50 PDE10 (converted)

{"compound": "COCCCc1cncc(-c2nnc3c(C)nc4ccc(CN5CCOCC5)cc4n23)c1", "qualifier.sign": "=", "IC50 (nM)": 8130}
{"compound": "COc1cc(NC(=O)c2ccc3nc(C)c4nnc(-c5ccccc5Cl)n4c3c2)cc(OC)c1OC", "qualifier.sign": "=", "IC50 (nM)": 77.6}
{"compound": "CCCCOc1cncc(-c2nnc3c(C)nc4ccc(CN5CCC(F)CC5)cc4n23)c1", "qualifier.sign": "=", "IC50 (nM)": 5130}
{"compound": "CCCOc1ccc(Cl)c(-c2nnc3c(C)nc4ccc(OC[C@@H]5CCCN5)cc4n23)c1", "qualifier.sign": "=", "IC50 (nM)": 8710}
{"compound": "Cc1nc2ccc(C(N3CCOCC3)C(F)(F)F)cc2n2c(-c3ccccc3Cl)nnc12 (stereo not shown)", "qualifier.sign": "=", "IC50 (nM)": 89.1}
{"compound": "Cc1nc2ccc(CNc3cccnc3)cc2n2c(-c3ccccc3Cl)nnc12", "qualifier.sign": "=", "IC50 (nM)": 11}
{"compound": "CCNC(=O)c1ccc2c(c1)nc(C)c1nnc(-c3cncc(OC)c3)n12", "qualifier.sign": "=", "IC50 (nM)": 7760}
{"compound": "CCCOc1ccc(Cl)c(-c2nnc3c(C)nc4ccc(CN(C)C)cc4n23)c1", "qualifier.sign": "=", "IC50 (nM)": 1480}
{"compound": "Cc1nc2ccc(OC(F)(F)F)cc2n2c(-c3ccccc3Cl)nnc12", "qualifier.sign": "=", "IC50 (nM)": 24.5}
{"compound": "Cc1nc2ccc(C(=O)N(C)Cc3ccccc3)cc2n2c(-c3ccccc3)nnc12", "qualifier.sign": "=", "IC50 (nM)": 204}
{"compound": "CCNC(=O)c1ccc2nc(C)c3nnc(-c4cccnc4OC)n3c2c1", "qualifier.sign": "=", "IC50 (nM)": 417}
{"compound": "CCOc1ccc(Cl)c(-c2nnc3c(C)nc4ccc(CN5CCC(F)CC5)cc4n23)c1", "qualifier.sign": "=", "IC50 (nM)": 282}
{"compound": "Cc1nc2ccc(N3CCN(C)CC3)cc2n2c(-c3ccccc3Cl)nnc12", "qualifier.sign": "=", "IC50 (nM)": 26.9}
{"compound": "Cc1ncccc1-c1nnc2c(C)nc3ccc(OC(F)(F)F)cc3n12", "qualifier.sign": "=", "IC50 (nM)": 174}
{"compound": "Cc1nc2ccc(CN(C)C)cc2n2c(-c3cncc(OCC4CC4)c3)nnc12", "qualifier.sign": ">", "IC50 (nM)": 10000}
{"compound": "CCCCOc1ccc(Cl)c(-c2nnc3c(C)nc4ccc(CNC5CCC5)cc4n23)c1", "qualifier.sign": "=", "IC50 (nM)": 2450}
{"compound": "CCNC(=O)c1ccc2nc(C)c3nnc(-c4cnccc4C)n3c2c1", "qualifier.sign": "=", "IC50 (nM)": 851}
{"compound": "Cc1cncc(-c2nnc3c(C)nc4ccc(Br)cc4n23)c1", "qualifier.sign": "=", "IC50 (nM)": 380}
{"compound": "CNC(=O)c1ccc2nc(C)c3nnc(-c4ccccc4Cl)n3c2c1", "qualifier.sign": "=", "IC50 (nM)": 20}
{"compound": "CCOC(=O)c1ccc2c(c1)nc(C)c1nnc(-c3ccccc3Cl)n12", "qualifier.sign": "=", "IC50 (nM)": 447}
{"compound": "Cc1nc2ccc(C(=O)NCc3ccccc3)cc2n2c(-c3ccccc3)nnc12", "qualifier.sign": "=", "IC50 (nM)": 41.7}
{"compound": "CCCOc1cncc(-c2nnc3c(C)nc4ccc(CNCC)cc4n23)c1", "qualifier.sign": ">", "IC50 (nM)": 10000}
{"compound": "COc1cncc(-c2nnc3c(C)nc4ccc(C(F)(F)F)cc4n23)c1", "qualifier.sign": "=", "IC50 (nM)": 1150}
{"compound": "Cc1nc2ccc(CN3CCOC(CCF)C3)cc2n2c(-c3ccccc3Cl)nnc12 (stereo not shown)", "qualifier.sign": "=", "IC50 (nM)": 50.1}
{"compound": "COc1ccccc1-c1nnc2c(C)nc3ccc(C(=O)NCc4ccccn4)cc3n12", "qualifier.sign": "=", "IC50 (nM)": 37.2}
{"compound": "Cc1nc2ccc(C(=O)NCCN3CCCCC3)cc2n2c(-c3ccccc3Cl)nnc12", "qualifier.sign": "=", "IC50 (nM)": 74.1}
{"compound": "Cc1nc2ccc(CNC3CCOCC3)cc2n2c(-c3ccccc3Cl)nnc12", "qualifier.sign": "=", "IC50 (nM)": 45.7}
{"compound": "CCOc1ccc(Cl)c(-c2nnc3c(C)nc4ccc(OCCc5cccnc5)cc4n23)c1", "qualifier.sign": "=", "IC50 (nM)": 145}
{"compound": "COCCC1CN(Cc2ccc3nc(C)c4nnc(-c5ccccc5Cl)n4c3c2)CCO1 (stereo not shown)", "qualifier.sign": "=", "IC50 (nM)": 89.1}
{"compound": "CCCOc1ccc(Cl)c(-c2nnc3c(C)nc4ccc(CNCC)cc4n23)c1", "qualifier.sign": "=", "IC50 (nM)": 1780}
{"compound": "COCCNC(=O)c1ccc2nc(C)c3nnc(-c4ccccc4Cl)n3c2c1", "qualifier.sign": "=", "IC50 (nM)": 20.4}
{"compound": "Cc1nc2ccc(CNC3CCC3)cc2n2c(-c3cncc(OCC4CC4)c3)nnc12", "qualifier.sign": ">", "IC50 (nM)": 10000}
{"compound": "Cc1nc2ccc(CN3CCC(F)CC3)cc2n2c(-c3ccccc3Cl)nnc12", "qualifier.sign": "=", "IC50 (nM)": 20}
{"compound": "Cc1nc2ccc(C(=O)NC3CCN(C)CC3)cc2n2c(-c3ccccc3Cl)nnc12", "qualifier.sign": "=", "IC50 (nM)": 145}
